Experimental System: UniProt P56817
Sequence (P56817 whole entry): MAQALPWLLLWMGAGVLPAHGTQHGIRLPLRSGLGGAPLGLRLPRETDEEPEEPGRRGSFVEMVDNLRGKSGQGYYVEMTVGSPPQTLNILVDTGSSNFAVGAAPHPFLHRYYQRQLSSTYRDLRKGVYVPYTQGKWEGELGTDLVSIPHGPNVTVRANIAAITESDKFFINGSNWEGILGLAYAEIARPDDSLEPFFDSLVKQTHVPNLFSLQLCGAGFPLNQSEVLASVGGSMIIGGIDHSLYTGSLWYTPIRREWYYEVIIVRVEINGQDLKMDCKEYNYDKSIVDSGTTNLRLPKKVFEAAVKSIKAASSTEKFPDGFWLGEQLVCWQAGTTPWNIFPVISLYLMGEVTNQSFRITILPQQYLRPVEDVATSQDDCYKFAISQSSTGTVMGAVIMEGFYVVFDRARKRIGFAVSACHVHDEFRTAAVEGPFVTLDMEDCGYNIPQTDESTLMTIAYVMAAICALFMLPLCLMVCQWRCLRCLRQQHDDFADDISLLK
Test Name: Inhibition of BACE1 (unknown origin) at 5 uM relative to control
Exercise: for every item that follows, state its recorded inhibition.
Give bare numbers, in %.

>  <Compound>
CCC1=CC2Cc3nc4cc(Cl)ccc4c(NCCN4CCC(CC5Cc6cc(OC)c(OC)cc6C5)CC4)c3C(C1)C2 (single isomer, unassigned; (-))

>  <inhibition / %>
12.5

$$$$
>  <Compound>
CCC1=CC2Cc3nc4cc(Cl)ccc4c(NCCCN4CCC(CC5Cc6cc(OC)c(OC)cc6C5)CC4)c3C(C1)C2 (racemic)

>  <inhibition / %>
18

$$$$
>  <Compound>
COc1cc2c(cc1OC)CC(CC1CCN(CCCNc3c4c(nc5cc(Cl)ccc35)CC3C=C(C)CC4C3)CC1)C2 (racemic)

>  <inhibition / %>
29.1

$$$$

List inhibition for every entry below, keeping the order given.
1. COc1cc2c(cc1OC)CC(CC1CCN(CCNc3c4c(nc5cc(Cl)ccc35)CC3C=C(C)CC4C3)CC1)C2 (stereo unspecified)
2. CCC1=CC2Cc3nc4cc(Cl)ccc4c(NCCCN4CCC(CC5Cc6cc(OC)c(OC)cc6C5)CC4)c3C(C1)C2 (stereo in doubt; (-)-36b)
3. COc1cc2c(cc1OC)CC(CC1CCN(CCCNc3c4c(nc5cc(Cl)ccc35)CC3C=C(C)CC4C3)CC1)C2 (single isomer, unassigned; (-))

Result string:
24.6
14.9
30.8
